- ASSAYED_SYSTEM: full-length human PHD2 (Homo sapiens, UniProt Q9GZT9)
- Construct: The PHD2 construct contained amino acids 1 to 426 of PHD2; His tag (N, cleaved yes); TEV protease cleavage site (N, cleaved yes)
- Sequence (Q9GZT9 whole entry, the tested form may be a part): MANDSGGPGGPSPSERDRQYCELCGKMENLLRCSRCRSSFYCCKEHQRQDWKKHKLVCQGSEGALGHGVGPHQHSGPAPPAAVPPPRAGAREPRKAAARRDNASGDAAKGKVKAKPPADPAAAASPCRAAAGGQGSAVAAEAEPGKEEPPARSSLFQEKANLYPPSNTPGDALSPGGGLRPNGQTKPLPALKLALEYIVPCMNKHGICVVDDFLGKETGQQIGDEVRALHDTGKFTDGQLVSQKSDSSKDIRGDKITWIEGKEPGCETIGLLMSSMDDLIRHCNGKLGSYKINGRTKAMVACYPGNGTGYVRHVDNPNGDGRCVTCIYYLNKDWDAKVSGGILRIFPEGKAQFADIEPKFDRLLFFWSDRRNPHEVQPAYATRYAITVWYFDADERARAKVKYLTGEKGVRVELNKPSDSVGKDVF
- METHOD_DESCRIPTION: TR-FRET assay for PHD enzymes, PHD2
- STUDY_CONDITIONS: read-out: PHD2 IC5 0
pIC50: −log10 of the molar value.
We begin with a simple list: items and their reported pIC50.

Here are 4 compounds together with their reported answers.
MOL_SMILES: Cc1cc(-c2c(C)nn(-c3ccc(C(=O)O)cn3)c2O)ccc1C#N
ASSAYED_SYSTEM: full-length human PHD2 (Homo sapiens, UniProt Q9GZT9)
pIC50: > 7.00
//
MOL_SMILES: N#Cc1cc(F)c(-c2cnn(-c3ccc(C(=O)O)cn3)c2O)cc1F
ASSAYED_SYSTEM: full-length human PHD2 (Homo sapiens, UniProt Q9GZT9)
pIC50: > 7.00
//
MOL_SMILES: Cc1ccc(-c2cnn(-c3ccc(C(=O)OC(C)(C)C)cn3)c2O)cc1
ASSAYED_SYSTEM: full-length human PHD2 (Homo sapiens, UniProt Q9GZT9)
pIC50: 5.00 to 6.00
//
MOL_SMILES: Cc1cc(-n2nc(C)c(-c3ccc(C#N)cc3)c2O)ncc1C(=O)O
ASSAYED_SYSTEM: full-length human PHD2 (Homo sapiens, UniProt Q9GZT9)
pIC50: > 7.00

Ask: For the compound shown here, N#Cc1ccc(-c2cnn(-c3ccc(C(=O)O)cn3)c2O)cc1F , give the reported pIC50.
Reply: > 7.00
